Entry source: patent US9388162B2

SYSTEM_TESTED: μ-opioid receptors (Homo sapiens (Human), UniProt P35372)
ASSAY_EXPLANATION: μ-opioid receptor [35S]GTPγS functional assay, HEK-293 cells
Format: biochemical
CONDITION_SET: μ GTP, relative to DAMGO, read-out: Activity Response μ Emax (%)
Experimental: [^35S]GTPγS functional assays were conducted using freshly thawed μ-receptor membranes prepared from a cell line expressing recombinant μ opioid receptor in a HEK-293, CHO or U-2 OS cell background or purchased from a commercial source (Perkin Elmer, Shelton, Conn.; or DiscovRx, Fremont, Calif.). […] BetaScint scintillation cocktail (Perkin Elmer, Shelton, Conn.) was added (50 μl/well) and plates were counted using a Packard Top-Count for 1 min/well. […]
MEASURED_ENDPOINT: Emax (%)
Write the number in % without appending the unit.

Report measured Emax; entry is COc1ccc2c(c1)[C@]13CCN(CC4CC4)[C@H](C2)[C@]1(O)C[C@H](CC(=O)N[C@@H](C)C(=O)O)C(=O)C3
66

Hello, please tell me recorded Emax for this one: O=C1C[C@]23CCN(CC4CC4)[C@H](Cc4ccc(O)cc42)[C@]3(O)C[C@@H]1CC(=O)N1CCC[C@H]1C(=O)O
0

Give the measured Emax for CC(C)[C@H]1C[C@H]2[C@H]3Cc4ccc(O)cc4[C@@]2(CCN3CC2CC2)CC1=O
90.3

Give me measured Emax, please, for this compound: COc1ccc2c(c1)[C@]13CCN(CC4CC4)[C@H](C2)[C@@H]1C[C@@H](C(C)C)C(=O)C3
101

Indicate its recorded Emax; the compound in question is CC(C)CNC(=O)C[C@H]1C[C@@]2(O)[C@H]3Cc4ccc(O)cc4[C@@]2(CCN3C)CC1=O
67.8

Using known records, supply Emax for COc1ccc2c(c1)[C@]13CCN(CC4CC4)[C@H](C2)[C@]1(O)CC(CC(=O)O)(CC(=O)O)C(=O)C3
16

Indicate the recorded Emax value for this compound: C[C@H](NC(=O)C[C@H]1C[C@@]2(O)[C@H]3Cc4ccc(O)cc4[C@@]2(CCN3CC2CC2)CC1=O)C(=O)O
36.2
